Assignment: determine reported concentration at 10 min for the given molecules.
- MEASUREMENT NOTES: Mouse blood levels after single intramuscular injection
- Type: in vivo, mice
- STATED CONDITIONS: 10 mg/kg im, 10 minutes, read-out: Mouse Blood Level
Number only, in ng/mL; omit the unit.

## Input What does the data say about its concentration at 10 min? Entry: CSc1scc[n+]1CC1=C(C(=O)[O-])N2C(=O)C(NC(=O)/C(=N\OC3(C(=O)O)CCC3)c3csc(N)n3)[C@H]2SC1 (stereo partly drawn)
## Output 8400

## Input What does the data say about its concentration at 10 min? Entry: CSc1scc[n+]1CC1=C(C(=O)[O-])N2C(=O)C(NC(=O)/C(=N\OC(C)(C)C(=O)O)c3csc(N)n3)[C@H]2SC1 (stereo partly drawn)
## Output 12000

## Input What does the data say about its concentration at 10 min? Entry: CO/N=C(\C(=O)NC1C(=O)N2C(C(=O)[O-])=C(C[n+]3ccsc3SC)CS[C@H]12)c1csc(N)n1 (stereo partly drawn)
## Output 14000
